Test: Inhibition of Rhodococcus sp. M777 Endoglycoceramidase 2 containing wild type sequence E351S
measured.property: pKi
Scale explanation: pKi corresponds to minus log10 of a concentration expressed in moles per litre.

input: Query (compound): CCCCCCCCCCCCCC[C@@H](O)[C@@H](O)[C@@H](N)CO [PHYTOSPHINGOSINE] ; field requested: pKi
output: 3.07
